test: Mouse blood levels after intramuscular administration; type: in vivo; conditions: mouse, blood, im, 10 mg/kg, Table III; IM 10 mg./kg.; 0.5 hr; 0.01% phosphate buffer; read-out: Mouse Blood Levels
readout_name: concentration at 0.5 h (ng/mL)
Number only, in ng/mL; omit the unit.

Query: Which measured concentration at 0.5 h value corresponds to O=C(O)C1=C(CSc2cnn[nH]2)CS[C@@H]2[C@H](N3C(=O)[C@@H](c4ccc(O)cc4)NC3c3ccc(S(=O)(=O)O)o3)C(=O)N12 (stereo partly shown) ?
Reply: 14800

* * *

Assignment: determine reported concentration at 3.5 h for the given compounds.
Experiment: Mouse blood levels after oral administration
Assay type: in vivo
Details: mouse, blood, po, 100 mg/kg, Example 2; PO 100 mg./kg.; 3.5 hr; Tween-CMC; 16 or 32 mice; read-out: Blood Levels
Description: Mouse Blood Levels After Oral Administration Of 100 mg./kg. Body Weight The compounds were prepared in Tween - carboxymethylcellulose and 8 mice were used for each Mouse Blood Levels After PO Administration of 100 mg./kg. Body Weight The compounds were prepared in Tween-CMC. BL-S640 The compounds were prepared in Tween-CMC. Values are the average of two
Number only, in ng/mL; omit the unit.

Query: Which measured concentration at 3.5 h value corresponds to O=C(O)C1=C(CSc2cnn[nH]2)CS[C@@H]2[C@H](N3C(=O)[C@@H](c4ccc(O)cc4)NC3c3ccc(S(=O)(=O)O)o3)C(=O)N12 (some centres unmarked) ?
Reply: 9300

Query: Which measured concentration at 3.5 h value corresponds to O=C(O)COc1ccccc1C1N[C@H](c2ccc(O)cc2)C(=O)N1[C@@H]1C(=O)N2C(C(=O)O)=C(CSc3cnn[nH]3)CS[C@H]12 (some centres unmarked) ?
Reply: 12800
